System: Saccharomyces cerevisiae BY4741 SeMeCo community
Assay: z-score of subpopulation abundance vs DMSO median, subpopulation auxotrophic for HUM; higher = larger share of this subpopulation than in DMSO controls
Details: 10 µM; 24 h; SM minimal medium; subpopulation (auxotrophy): HUM
Binary call on z-score of subpopulation abundance: T from -0.2 upward, F beneath that.

{"compound": "CN(C)CCCC1(c2ccc(F)cc2)OCc2cc(C#N)ccc21 (stereo not drawn) [Citalopram HBr]", "assigned-category": "T"}
{"compound": "C[N+]1(C)[C@@H]2CC[C@H]1C[C@@H](OC(=O)C(O)c1ccccc1)C2 (stereo partly drawn) [Homatropine Methylbromide]", "assigned-category": "T"}
{"compound": "CC1=C(C(=O)O)N2C(=O)[C@@H](NC(=O)[C@H](N)c3ccccc3)[C@H]2SC1 [Cephalexin]", "assigned-category": "T"}
{"compound": "CN1CCCN=C1/C=C/c1cccs1 [Pyrantel Pamoate]", "assigned-category": "F"}
{"compound": "C#C[C@]1(O)CC[C@H]2[C@@H]3CCc4cc(O)ccc4[C@H]3CC[C@@]21C [Ethinyl Estradiol]", "assigned-category": "F"}
{"compound": "COc1cccc(-c2c(C)n(Cc3c(F)cccc3C(F)(F)F)c(=O)n(C[C@H](NCCCC(=O)O)c3ccccc3)c2=O)c1F [Elagolix Sodium]", "assigned-category": "T"}
{"compound": "CCCCN(CCCC)CC(O)c1cc(Cl)cc2c1-c1ccc(Cl)cc1/C2=C/c1ccc(Cl)cc1 (stereo not drawn) [Lumefantrine]", "assigned-category": "T"}
{"compound": "CC(C)NC(=N)NC(=N)Nc1ccc(Cl)cc1 [Proguanil]", "assigned-category": "T"}

----------
Tested on: Saccharomyces cerevisiae BY4741 SeMeCo community
Assay: z-score of subpopulation abundance vs DMSO median, subpopulation auxotrophic for U; higher = larger share of this subpopulation than in DMSO controls
Settings: 10 µM; 24 h; SM minimal medium; subpopulation (auxotrophy): U
Counter-ions that a name gives are not always drawn.
quantity-kind: z-score of subpopulation abundance

{"compound": "CC1(C)S[C@@H]2[C@H](NC(=O)[C@H](N)c3ccccc3)C(=O)N2[C@H]1C(=O)O [Ampicillin sodium]", "value": 0.29}
{"compound": "CS(=O)(=O)c1ccc([C@@H](O)[C@@H](CO)NC(=O)C(Cl)Cl)cc1", "value": 0.59}
{"compound": "Clc1ccc(COC(Cn2ccnc2)c2ccc(Cl)cc2Cl)cc1 (stereo not drawn) [Econazole nitrate]", "value": 3.05}
{"compound": "COc1cccc(CCc2ccccc2OCC(CN(C)C)OC(=O)CCC(=O)O)c1 (stereo not drawn) [Sarpogrelate hydrochloride]", "value": -0.21}
{"compound": "Cc1ccsc1/C=C/C1=NCCCN1C [Morantel tartrate]", "value": 0.23}
{"compound": "O=C(O[C@@H]1C[C@@H]2C[C@H]3C[C@H](C1)N2CC3=O)c1c[nH]c2ccccc12 [Dolasetron Mesylate]", "value": 0.89}
{"compound": "OCc1ccccc1O[C@@H]1O[C@H](CO)[C@@H](O)[C@H](O)[C@H]1O", "value": -0.42}
{"compound": "COC(=O)C1=C(C)NC(C)=C(C(=O)OCCN(C)Cc2ccccc2)C1c1cccc([N+](=O)[O-])c1 (stereo not drawn) [Nicardipine HCl]", "value": -0.42}

----------
Test system: Saccharomyces cerevisiae BY4741 SeMeCo community
Experiment: z-score of subpopulation abundance vs DMSO median, subpopulation auxotrophic for LM; higher = larger share of this subpopulation than in DMSO controls
Settings: 10 µM; 24 h; SM minimal medium; subpopulation (auxotrophy): LM
Structures can show the parent of a compound that is named as a salt.
Binary call on z-score of subpopulation abundance: y from 0.1 upward, n beneath that.

{"compound": "COc1ccc2c3c1O[C@H]1C[C@@H](O)C=C[C@@]31CCN(C)C2", "assigned-category": "y"}
{"compound": "O=C1[C@@H]2[C@H]3CC[C@H](C3)[C@@H]2C(=O)N1C[C@@H]1CCCC[C@H]1CN1CCN(c2nsc3ccccc23)CC1", "assigned-category": "y"}
{"compound": "CN1CCN(CCCN2c3ccccc3Sc3ccc(C(F)(F)F)cc32)CC1 [Trifluoperazine 2HCl]", "assigned-category": "n"}
{"compound": "CCC(C)n1ncn(-c2ccc(N3CCN(c4ccc(OCC5COC(Cn6cncn6)(c6ccc(Cl)cc6Cl)O5)cc4)CC3)cc2)c1=O (stereo not given)", "assigned-category": "y"}
{"compound": "Cc1ncc([N+](=O)[O-])n1C", "assigned-category": "n"}
{"compound": "Oc1ccc(Cl)c2cccnc12", "assigned-category": "y"}
{"compound": "CC1(C)S[C@@H]2[C@H](NC(=O)[C@H](N)c3ccc(O)cc3)C(=O)N2[C@H]1C(=O)O [Amoxicillin trihydrate]", "assigned-category": "y"}
{"compound": "CCn1cc(C(=O)O)c(=O)c2cc(F)c(N3CCN(C)CC3)cc21 [Pefloxacin Mesylate]", "assigned-category": "n"}
{"compound": "Clc1ccc(CCC(Cn2ccnc2)Sc2c(Cl)cccc2Cl)cc1 (stereo not given) [Butoconazole nitrate]", "assigned-category": "n"}
{"compound": "CO/N=C(\\C(=O)N[C@@H]1C(=O)N2C(C(=O)O)=C(COC(N)=O)CS[C@H]12)c1ccco1 [Cefuroxime sodium]", "assigned-category": "n"}
{"compound": "CN(C)[C@@H]1C(=O)C(C(N)=O)=C(O)[C@@]2(O)C(=O)C3=C(O)c4c(O)ccc(Cl)c4[C@@H](O)[C@H]3C[C@@H]12 [Demeclocycline HCl]", "assigned-category": "n"}
{"compound": "CN(C)CCCN1c2ccccc2Sc2ccc(Cl)cc21 [Chlorpromazine HCl]", "assigned-category": "y"}
{"compound": "N[C@@H]1CCCCN(c2c(F)cc3c(=O)c(C(=O)O)cn(C4CC4)c3c2Cl)C1 [Besifloxacin HCl]", "assigned-category": "y"}
{"compound": "CO/N=C(\\C(=O)N[C@@H]1C(=O)N2C(C(=O)O)=C(CSc3nc(=O)c(O)nn3C)CS[C@H]12)c1csc(N)n1 [Ceftriaxone Sodium Trihydrate]", "assigned-category": "n"}
{"compound": "CC1(C)S[C@@H]2[C@H](NC(=O)[C@H](NC(=O)N3CCNC3=O)c3ccccc3)C(=O)N2[C@H]1C(=O)O [Azlocillin sodium salt]", "assigned-category": "y"}

----------
Test system: Saccharomyces cerevisiae BY4741 SeMeCo community
Assay: z-score of subpopulation abundance vs DMSO median, subpopulation auxotrophic for HLU; higher = larger share of this subpopulation than in DMSO controls
Conditions: 10 µM; 24 h; SM minimal medium; subpopulation (auxotrophy): HLU
Counter-ions that a name gives are not always drawn.
Binary call on z-score of subpopulation abundance: Condition met from 0.2 upward, Condition not met beneath that.

{"molecule": "CC(NCCC(c1ccccc1)c1ccccc1)c1ccccc1 (stereo unspecified) [Fendiline hydrochloride]", "assigned-category": "Condition not met"}
{"molecule": "CC[C@H](c1ccc(O)cc1)[C@@H](CC)c1ccc(O)cc1 [Hexestrol]", "assigned-category": "Condition not met"}
{"molecule": "C[C@@H](O)[C@H]1C(=O)N2C(C(=O)O)=C(S[C@@H]3CN[C@H](C(=O)Nc4cccc(C(=O)O)c4)C3)[C@H](C)[C@H]12 [Ertapenem sodium]", "assigned-category": "Condition not met"}
{"molecule": "CC[C@H]1OC(=O)[C@H](C)[C@@H](O[C@H]2C[C@@](C)(OC)[C@@H](O)[C@H](C)O2)[C@H](C)[C@@H](O[C@@H]2O[C@H](C)C[C@H](N(C)C)[C@H]2O)[C@](C)(O)C[C@@H](C)CN(C)[C@H](C)[C@@H](O)[C@]1(C)O [Azithromycin]", "assigned-category": "Condition not met"}
{"molecule": "Nc1nc(N)nc(-c2cc(Cl)ccc2Cl)n1 [Irsogladine]", "assigned-category": "Condition met"}
{"molecule": "Nc1cc(C(Cl)=C(Cl)Cl)c(S(N)(=O)=O)cc1S(N)(=O)=O [Clorsulon]", "assigned-category": "Condition met"}
{"molecule": "CN1CCOC(c2ccccc2)c2ccccc2C1 (stereo unspecified) [Nefopam HCl]", "assigned-category": "Condition not met"}
{"molecule": "CN(C)CC(c1ccc(O)cc1)C1(O)CCCCC1 (stereo unspecified) [Desvenlafaxine]", "assigned-category": "Condition not met"}
{"molecule": "C[N+]1(C)[C@@H]2CC[C@H]1C[C@@H](OC(=O)C(O)c1ccccc1)C2 (stereo partly specified) [Homatropine Methylbromide]", "assigned-category": "Condition not met"}
{"molecule": "CCCCCCCCCCCCCCCCCCOP(=O)([O-])OC1CC[N+](C)(C)CC1 [Perifosine (KRX-0401)]", "assigned-category": "Condition met"}
{"molecule": "CC(C)[C@H](N)C(=O)OCC(CO)OCn1cnc2c(=O)[nH]c(N)nc21 (stereo partly specified) [Valganciclovir HCl]", "assigned-category": "Condition not met"}
{"molecule": "C=CCc1ccc(O)c(-c2ccc(O)c(CC=C)c2)c1 [Honokiol]", "assigned-category": "Condition not met"}
{"molecule": "COC(=O)C1=C(C)NC(C)=C(C(=O)OC(C)(C)CN(C)CCC(c2ccccc2)c2ccccc2)C1c1cccc([N+](=O)[O-])c1 (stereo unspecified) [Lercanidipine]", "assigned-category": "Condition met"}
{"molecule": "Oc1c(I)cc(Cl)c2cccnc12 [Clioquinol]", "assigned-category": "Condition met"}
{"molecule": "O=C(Nc1cccc(C2=NCCN2)c1)Nc1cccc(C2=NCCN2)c1 [Imidocarb dipropionate]", "assigned-category": "Condition not met"}
{"molecule": "Cc1ncc([N+](=O)[O-])n1C [Dimetridazole]", "assigned-category": "Condition not met"}
